# target-or-test-system: C-8 sterol isomerase ERG2 (Saccharomyces cerevisiae S288c) (UniProt P32352)
# Sequence (P32352 whole entry, looked up): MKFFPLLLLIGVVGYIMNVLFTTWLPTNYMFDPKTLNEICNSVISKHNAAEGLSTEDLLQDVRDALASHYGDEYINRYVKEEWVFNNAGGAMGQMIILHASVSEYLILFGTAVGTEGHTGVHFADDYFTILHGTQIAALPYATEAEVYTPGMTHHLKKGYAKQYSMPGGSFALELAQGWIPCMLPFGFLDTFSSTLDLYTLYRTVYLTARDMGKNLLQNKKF
# assay-protocol: Inhibition of yeast sterol-delta8/7-isomerase assessed as accumulation of cholesta-5,7-dien-3beta-ol at 50 uM
Calls of active or inactive are those of the source. The calls are words filed in the database; no cut-off is given here.
Log the outcome using a class from YES (active), NO (inactive)

Please review the entries below; each comes with its answer.
[
  {
    "test-smiles": "CCCCN1CCCN(Cc2ccccc2)[C@H](Cc2ccccc2)C1",
    "class": "YES"
  },
  {
    "test-smiles": "C[C@@H]1CN(CC2CCCCC2)CCCN1Cc1ccccc1",
    "class": "YES"
  },
  {
    "test-smiles": "CN1CCCN(Cc2ccccc2)[C@@H](Cc2ccccc2)C1",
    "class": "YES"
  },
  {
    "test-smiles": "c1ccc(C[C@@H]2CN(Cc3ccccc3)CCCN2Cc2ccccc2)cc1",
    "class": "YES"
  },
  {
    "test-smiles": "CN1CCCN(Cc2ccccc2)[C@H](Cc2ccccc2)C1",
    "class": "YES"
  },
  {
    "test-smiles": "c1ccc(C[C@H]2CNCCCN2Cc2ccccc2)cc1",
    "class": "NO"
  },
  {
    "test-smiles": "c1ccc(C[C@H]2CN(Cc3ccccc3)CCCN2Cc2ccccc2)cc1",
    "class": "YES"
  },
  {
    "test-smiles": "c1ccc(CCCN2CCCN(Cc3ccccc3)[C@H](Cc3ccccc3)C2)cc1",
    "class": "YES"
  },
  {
    "test-smiles": "COc1ccc(CN2CCCN(Cc3ccccc3)[C@@H](Cc3ccccc3)C2)cc1",
    "class": "YES"
  }
]

Below: the item to evaluate.
Request: For this molecule, state the assay outcome: CCCCN1CCCN(Cc2ccccc2)[C@@H](Cc2ccccc2)C1
Result: YES

---

# target-or-test-system: C-8 sterol isomerase ERG2 (Saccharomyces cerevisiae S288c) (UniProt P32352)
# assay-protocol: Inhibition of yeast sterol-delta8/7-isomerase assessed as accumulation of cholesta-8,14-dien-3beta-ol at 50 uM
Activity calls are given as the source filed them. The rule behind the calls is not given here.
Select the matching outcome among TRUE (active), FALSE (inactive)

Some entries whose results are on file:
[
  {
    "test-smiles": "c1ccc(CCN2CCCN(Cc3ccccc3)[C@@H](Cc3ccccc3)C2)cc1",
    "class": "TRUE"
  },
  {
    "test-smiles": "COc1ccc(CN2CCCN(Cc3ccccc3)[C@@H](C(C)C)C2)cc1",
    "class": "FALSE"
  },
  {
    "test-smiles": "c1ccc(C[C@H]2CNCCCN2Cc2ccccc2)cc1",
    "class": "TRUE"
  },
  {
    "test-smiles": "c1ccc(C[C@@H]2CNCCCN2Cc2ccccc2)cc1",
    "class": "TRUE"
  },
  {
    "test-smiles": "CCCCN1CCCN(Cc2ccccc2)[C@@H](Cc2ccccc2)C1",
    "class": "TRUE"
  },
  {
    "test-smiles": "CN1CCCN(Cc2ccccc2)[C@@H](Cc2ccccc2)C1",
    "class": "FALSE"
  },
  {
    "test-smiles": "c1ccc(C[C@H]2CN(Cc3ccccc3)CCCN2Cc2ccccc2)cc1",
    "class": "TRUE"
  },
  {
    "test-smiles": "CCCCN1CCCN(Cc2ccccc2)[C@@H](C)C1",
    "class": "FALSE"
  }
]

Request: GET /call?item= CCCCN1CCCN(Cc2ccccc2)[C@H](Cc2ccccc2)C1 returns the recorded outcome of this test.
Result: TRUE

Request: Each compound tested received a call. Report the one for COc1ccc(CN2CCCN(Cc3ccccc3)[C@@H](Cc3ccccc3)C2)cc1 .
Result: TRUE

---

# target-or-test-system: CYP2C9 (Homo sapiens)
# Sequence (P11712 whole entry): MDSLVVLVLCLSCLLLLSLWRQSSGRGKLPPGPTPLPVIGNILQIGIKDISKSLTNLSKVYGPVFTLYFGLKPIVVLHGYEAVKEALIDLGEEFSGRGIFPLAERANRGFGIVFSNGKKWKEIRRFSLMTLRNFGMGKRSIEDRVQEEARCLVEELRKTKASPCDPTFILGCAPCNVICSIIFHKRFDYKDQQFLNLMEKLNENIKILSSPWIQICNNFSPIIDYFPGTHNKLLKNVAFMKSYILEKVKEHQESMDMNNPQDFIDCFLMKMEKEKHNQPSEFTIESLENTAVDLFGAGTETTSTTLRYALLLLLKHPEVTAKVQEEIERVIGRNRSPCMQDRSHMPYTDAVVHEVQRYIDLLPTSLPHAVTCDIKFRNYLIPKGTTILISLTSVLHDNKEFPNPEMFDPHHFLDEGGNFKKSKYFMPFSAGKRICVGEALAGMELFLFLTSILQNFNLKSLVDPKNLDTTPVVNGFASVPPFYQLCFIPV
# assay-protocol: Inhibition on CYP2C9 (unknown origin) at 1 uM
# Type: ADME
measurement-name: inhibition at 1 µM (%)
Give the value in % but do not write % after it.

Recorded inhibition at 1 µM for COc1ccc(CN2CCCN(Cc3ccccc3)[C@@H](C)C2)cc1 on CYP2C9 (Homo sapiens) was 0

---

# target-or-test-system: Sigma intracellular receptor 2 (Rattus norvegicus)
# Sequence (Q5U3Y7 whole entry): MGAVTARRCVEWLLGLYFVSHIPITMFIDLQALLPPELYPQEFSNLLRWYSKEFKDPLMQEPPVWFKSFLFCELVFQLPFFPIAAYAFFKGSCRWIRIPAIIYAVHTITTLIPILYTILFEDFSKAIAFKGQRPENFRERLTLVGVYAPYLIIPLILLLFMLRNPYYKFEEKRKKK
# assay-protocol: Displacement of [3H]-DTG from sigma2 receptor in rat liver membranes after 120 mins by liquid scintillation counting
# Format: cell membranes, Membrane
pKi: recorded values
The quantity pKi is defined as the negative base-10 logarithm of the molar concentration.

These solved cases illustrate the format of a correct answer.
[
  {
    "test-smiles": "c1ccc(C[C@@H]2CN(Cc3ccccc3)CCCN2Cc2ccccc2)cc1",
    "measurement-name": "pKi",
    "measured-value": 6.29
  },
  {
    "test-smiles": "COc1ccc(CN2CCCN(Cc3ccccc3)[C@H](Cc3ccccc3)C2)cc1",
    "measurement-name": "pKi",
    "measured-value": 6.37
  }
]

The reported pKi of the compound C[C@H]1CN(CC2CCCCC2)CCCN1Cc1ccccc1 was 8.13

Sample CCCCN1CCCN(Cc2ccccc2)[C@H](C)C1 ; pKi observed: 6.43

Short answer for COc1ccc(CN2CCCN(Cc3ccccc3)[C@H](C)C2)cc1 : pKi was 6.37

---

# target-or-test-system: Sigma intracellular receptor 2 (Rattus norvegicus, UniProt Q5U3Y7)
# assay-protocol: Displacement of [3H]-DTG from sigma2 receptor in rat liver membranes after 120 mins by liquid scintillation counting
# Type: cell membranes, Membrane
Criterion: Ki strictly less than 50 nM. Met: yes. Not met: no.

[
  {
    "test-smiles": "CCCCN1CCCN(Cc2ccccc2)[C@H](Cc2ccccc2)C1",
    "class": "no"
  },
  {
    "test-smiles": "CCCCN1CCCN(Cc2ccccc2)[C@@H](Cc2ccccc2)C1",
    "class": "no"
  },
  {
    "test-smiles": "COc1ccc(CN2CCCN(CC3CCCCC3)C[C@@H]2C)cc1",
    "class": "yes"
  },
  {
    "test-smiles": "C[C@H]1CN(CCCCc2ccccc2)CCCN1Cc1ccccc1",
    "class": "yes"
  },
  {
    "test-smiles": "c1ccc(C[C@H]2CNCCCN2Cc2ccccc2)cc1",
    "class": "no"
  }
]

Request: Report whether reported Ki is lower than 50 nM (strictly) for c1ccc(CCCCN2CCCN(Cc3ccccc3)[C@@H](Cc3ccccc3)C2)cc1
Result: no

---

# target-or-test-system: Sigma non-opioid intracellular receptor 1 (Cavia porcellus, UniProt Q60492)
# Sequence (Q60492 whole entry): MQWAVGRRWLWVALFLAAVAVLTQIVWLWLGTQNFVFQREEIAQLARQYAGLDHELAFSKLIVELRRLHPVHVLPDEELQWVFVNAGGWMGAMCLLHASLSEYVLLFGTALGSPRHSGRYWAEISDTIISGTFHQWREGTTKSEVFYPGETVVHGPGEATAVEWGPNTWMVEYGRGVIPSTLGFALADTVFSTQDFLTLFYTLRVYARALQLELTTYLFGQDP
# assay-protocol: Displacement of [3H]-pentazocine from sigma1 receptor in guinea pig brain membranes after 120 mins by liquid scintillation counting
Here the recorded Ki is given for each entry.

[
  {
    "test-smiles": "CCCCN1CCCN(CCCC)[C@H](Cc2ccccc2)C1",
    "Ki": "21 nM"
  }
]

Ki reading for C[C@@H]1CN(CCCCc2ccccc2)CCCN1Cc1ccccc1 : 0.83 nM

Reported Ki of c1ccc(C[C@H]2CNCCCN2Cc2ccccc2)cc1 : > 1000 nM

For reference, reported Ki for COc1ccc(CN2CCCN(Cc3ccccc3)[C@H](C)C2)cc1 stands at 0.51 nM

For c1ccc(CCCCN2CCCN(Cc3ccccc3)[C@H](Cc3ccccc3)C2)cc1 the molecule record lists Ki as 28 nM

Value of Ki reported for the molecule CC(C)[C@H]1CN(CC2CCCCC2)CCCN1Cc1ccccc1 is 6 nM

---

# target-or-test-system: C-8 sterol isomerase ERG2 (Saccharomyces cerevisiae S288c)
# assay-protocol: Inhibition of yeast sterol-delta8/7-isomerase assessed as accumulation of cholesta-8-en-3beta-ol at 50 uM
The source made the active and inactive calls. No cut-off for these calls is given here.
# valid calls are true (1) (active), false (0) (inactive); nothing else

Request: Hi, do you know how C[C@@H]1CN(CCCCc2ccccc2)CCCN1Cc1ccccc1 came out in this test?
Result: false (0)

---

# target-or-test-system: Sigma non-opioid intracellular receptor 1 (Cavia porcellus, UniProt Q60492)
# assay-protocol: Displacement of [3H]-pentazocine from sigma1 receptor in guinea pig brain membranes after 120 mins by liquid scintillation counting
Threshold 4 nM. Ki below it: True. Ki at it or above: False.

[
  {
    "compound": "COc1ccc(CN2CCCN(Cc3ccccc3)[C@@H](C)C2)cc1",
    "class": "True"
  }
]

Request: Identify whether the compound c1ccc(C[C@@H]2CNCCCN2Cc2ccccc2)cc1 records Ki below 4 nM.
Result: False

Request: Please indicate whether the reported Ki of COc1ccc(CN2CCCN(CC3CCCCC3)C[C@@H]2C)cc1 is strictly below 4 nM.
Result: True

Request: Does this compound meet the criterion Ki < 4 nM? c1ccc(C[C@@H]2CN(Cc3ccccc3)CCCN2Cc2ccccc2)cc1
Result: False

Request: For CCCCN1CCCN(Cc2ccccc2)[C@@H](Cc2ccccc2)C1 , is the recorded Ki below the cut-off of 4 nM?
Result: True

Request: Lab note: Ki threshold 4 nM. Does this compound come in strictly under it? CCCCN1CCCN(CCCCc2ccccc2)[C@@H](Cc2ccccc2)C1
Result: False

Request: is_below(Ki, 4 nM) for c1ccc(C[C@H]2CN(Cc3ccccc3)CCCN2Cc2ccccc2)cc1 ?
Result: False

Request: API: query returns whether the compound falls strictly under 4 nM in Ki. Query: CCCCN1CCCN(CCCC)[C@@H](Cc2ccccc2)C1
Result: False

Request: # check: Ki < 4 nM for OC(CN1CCCN(Cc2ccccc2)[C@@H](Cc2ccccc2)C1)c1ccccc1 (stereo partly drawn)
Result: False
